Listed here: items and their measured MFI at 33.3 nM.
- tested target: human CTLA-4 (human) (UniProt P16410)
- Sequence (P16410 36-223): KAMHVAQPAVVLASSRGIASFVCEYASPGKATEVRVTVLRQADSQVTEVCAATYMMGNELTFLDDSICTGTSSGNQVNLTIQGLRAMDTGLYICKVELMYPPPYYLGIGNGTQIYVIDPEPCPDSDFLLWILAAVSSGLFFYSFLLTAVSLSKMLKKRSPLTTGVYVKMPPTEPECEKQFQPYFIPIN
- test protocol: flow cytometry, CHO cells expressing huCTLA4
# output: bare number, implied unit MFI

Here are 2 binders together with their reported answers.
| binder | MFI at 33.3 nM (MFI) |
| --- | --- |
| variant CD80 IgV-Fc V22L/Q27H/E35D/M47I/A71G (Fc fusion) VIHVTKEVKEVATLSCGHNVSLEELAHTRIYWQKDKKMVLTMMSGDINIWPEYKNRTIFDITNNLSIVILGLRPSDEGTYECVVLKYEKDAFKREHLAEVTLSVKAD | 152000 |
| variant CD80 IgV-Fc Q33K/E35D/D46V/L85Q (Fc fusion) VIHVTKEVKEVATLSCGHNVSVEELAQTRIYWKKDKKMVLTMMSGVMNIWPEYKNRTIFDITNNLSIVILALRPSDEGTYECVVQKYEKDAFKREHLAEVTLSVKAD | 8510 |

Okay, now this binder:
Problem: What does the data say about its MFI at 33.3 nM? Entry: variant CD80 IgV-Fc V22A/E35D/V68E/A71D (Fc fusion) VIHVTKEVKEVATLSCGHNVSAEELAQTRIYWQKDKKMVLTMMSGDMNIWPEYKNRTIFDITNNLSIEILDLRPSDEGTYECVVLKYEKDAFKREHLAEVTLSVKAD
Result: 437000
